Tested System: EGFR (UniProt P00533)
Sequence (P00533 whole entry, looked up): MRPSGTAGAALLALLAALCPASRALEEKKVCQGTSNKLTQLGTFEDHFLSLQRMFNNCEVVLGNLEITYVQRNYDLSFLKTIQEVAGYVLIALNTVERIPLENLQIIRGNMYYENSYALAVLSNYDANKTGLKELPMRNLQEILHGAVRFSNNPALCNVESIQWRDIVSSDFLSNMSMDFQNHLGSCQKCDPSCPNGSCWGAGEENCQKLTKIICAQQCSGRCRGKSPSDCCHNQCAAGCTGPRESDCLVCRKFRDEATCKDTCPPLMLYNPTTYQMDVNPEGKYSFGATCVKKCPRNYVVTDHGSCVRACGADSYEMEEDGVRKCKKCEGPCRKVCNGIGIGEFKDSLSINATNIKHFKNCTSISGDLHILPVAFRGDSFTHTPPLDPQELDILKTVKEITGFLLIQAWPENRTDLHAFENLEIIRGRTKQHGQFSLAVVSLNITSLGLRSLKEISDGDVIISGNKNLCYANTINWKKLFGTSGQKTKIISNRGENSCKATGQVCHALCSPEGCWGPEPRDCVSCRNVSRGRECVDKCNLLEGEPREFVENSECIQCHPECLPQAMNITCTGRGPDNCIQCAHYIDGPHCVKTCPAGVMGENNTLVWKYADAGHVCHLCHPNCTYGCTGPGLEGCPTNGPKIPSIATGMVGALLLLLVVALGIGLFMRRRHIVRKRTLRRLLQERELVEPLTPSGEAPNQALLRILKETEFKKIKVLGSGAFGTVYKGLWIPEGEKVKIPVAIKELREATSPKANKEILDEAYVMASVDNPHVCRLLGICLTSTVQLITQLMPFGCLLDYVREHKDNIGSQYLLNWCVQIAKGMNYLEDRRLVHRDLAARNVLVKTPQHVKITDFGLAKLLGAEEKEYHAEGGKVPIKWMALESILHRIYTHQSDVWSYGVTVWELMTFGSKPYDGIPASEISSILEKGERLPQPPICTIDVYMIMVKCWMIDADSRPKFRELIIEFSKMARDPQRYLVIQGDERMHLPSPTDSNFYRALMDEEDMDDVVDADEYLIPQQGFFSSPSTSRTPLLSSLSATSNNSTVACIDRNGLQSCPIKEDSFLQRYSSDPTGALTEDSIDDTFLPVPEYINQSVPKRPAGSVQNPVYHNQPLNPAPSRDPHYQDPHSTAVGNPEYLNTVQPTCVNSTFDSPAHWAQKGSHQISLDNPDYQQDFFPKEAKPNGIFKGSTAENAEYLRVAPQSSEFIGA
Measurement Parameters: concentration not given here
Entries and their measured inhibition follow.

The compound listed as COc1ccccc1-c1cc(Nc2ccc(C(=O)NC3CCCNC3)cc2)ncn1 (stereo not given) has a reported inhibition of > 80%

The compound listed as COc1ccccc1-c1cc(Nc2ccc(C(=O)N[C@@H]3CCCC[C@H]3N)cc2)ncn1.COc1ccccc1-c1cc(Nc2ccc(C(=O)N[C@H]3CCCC[C@@H]3N)cc2)ncn1 has a reported inhibition of 50 to 80%

The compound listed as COc1ccccc1-c1cc(Nc2ccc(NC(=O)[C@H]3CCCCN3)cc2)ncn1 has a reported inhibition of > 80%

The compound listed as COc1ccccc1-c1cc(Nc2ccc(NC(=O)c3ccc(N4CCN(C)CC4)cc3)cc2)ncn1 has a reported inhibition of 50 to 80%

The compound listed as CCN(CC)CCC(=O)Nc1ccc(Nc2cc(-c3ccccc3OC)ncn2)cc1 has a reported inhibition of > 80%

* * *

Tested System: CDK2 (UniProt P24941)
Assay Method Text: Enzyme Assay
Experimental Endpoint: IC50

COc1ccccc1-c1cc(Nc2ccc(NC(=O)[C@@H](N)C(C)C)cc2)ncn1 ... 1 to 10 µM
COc1ccc(-c2cc(Nc3ccc(C(=O)N[C@@H]4CCCC[C@H]4N)cc3)ncn2)cc1.COc1ccc(-c2cc(Nc3ccc(C(=O)N[C@H]4CCCC[C@@H]4N)cc3)ncn2)cc1 ... 1 to 10 µM
COc1ccccc1-c1cc(Nc2ccc(C(=O)Nc3ccc(C(C)C)cc3)cc2)ncn1 ... 10 to 250 µM

The molecule listed as COC(=O)CN(c1ccc(Nc2cc(-c3ccccc3OC)ncn2)cc1)S(=O)(=O)c1ccc(C)cc1 has a reported IC50 of 1 to 10 µM

The molecule listed as COc1ccc(-c2cc(Nc3ccc(NS(=O)(=O)c4ccc(C)cc4)cc3)ncn2)cc1 has a reported IC50 of 1 to 10 µM

The molecule listed as COc1ccc(-c2cc(Nc3ccc(NC(=O)c4ccc(N)cc4)cc3)ncn2)c(OC)c1 has a reported IC50 of 0.001 to 1 µM

The molecule listed as COc1ccccc1-c1cc(Nc2ccc(N)cc2)ncn1 has a reported IC50 of 0.001 to 1 µM

The molecule listed as C=Cc1ccccc1-c1cc(Nc2ccc(NC(=O)C(C)(C)C)cc2)ncn1 has a reported IC50 of 10 to 250 µM

The molecule listed as CCCN(c1ccc(Nc2cc(-c3ccccc3OC)ncn2)cc1)S(=O)(=O)c1ccc(C)cc1 has a reported IC50 of 10 to 250 µM

* * *

Tested System: CDK2 (UniProt P24941)
Assay Method Text: Enzyme Assay
Experimental Endpoint: IC50

COc1cccc(-c2cc(Nc3ccc(NC(=O)[C@@H]4CCCCN4)cc3)ncn2)c1OC ... 10 to 250 µM
COc1ncccc1-c1cc(Nc2ccc(NC(=O)[C@@H]3CCCCN3)cc2)ncn1 ... 1 to 10 µM
Cc1ccc(Nc2cc(-c3cccc(N)c3)ncn2)cc1NS(=O)(=O)c1ccccc1 ... 1 to 10 µM
Cc1ccc(S(=O)(=O)Nc2ccc(Nc3cc(-c4ccc(O)cc4)ncn3)cc2)cc1 ... 0.001 to 1 µM
COc1ccccc1-c1cc(Nc2cccc(S(C)(=O)=O)c2)ncn1 ... 0.001 to 1 µM

The molecule listed as COc1ccccc1-c1cc(Nc2ccc(C(=O)NC(C)(C)C)cc2)ncn1 has a reported IC50 of 1 to 10 µM

The molecule listed as COc1ccccc1-c1cc(Nc2ccc(NC(=O)c3cn(C)cn3)cc2)ncn1 has a reported IC50 of 1 to 10 µM

The molecule listed as COC(=O)/C=C/c1cccc(-c2cc(Nc3ccc(C)c(NS(C)(=O)=O)c3)ncn2)c1 has a reported IC50 of 1 to 10 µM
